Recorded values, source paper PMC10584170.

Test system: P. falciparum male gametocytes
Experiment: P. falciparum Dual Gamete Formation Assay (PfDGFA), male readout (exflagellation)
Type: cell-based, Plasmodium falciparum NF54
Settings: PfDGFA at 2µM, 24h preincubation; average of replicates
Exercise: state measured Average inhibition male (%) for each of the molecules provided.
Answers are plain numbers, in %.

The following molecules have reported results that may help.
molecule	Average inhibition male (%)
O=c1c(NCCCN(Cc2ccc(F)cc2)c2ccccn2)c(NCc2ccncc2)c1=O	-8.8
CCCCCN1CCCC1CNS(=O)(=O)c1cccc(C(=O)Nc2cccc(C#N)c2)c1.O=C(O)C(F)(F)F (centres unmarked)	7.9
CC1(C)N=C(N)N=C(N)N1OCc1cc(Cl)c(CON2C(N)=NC(N)=NC2(C)C)cc1Cl	-4.5
CC(=O)c1ccc(NC(=O)NNC(=O)c2ccc(CCN3CCC(c4nc(COCC(F)(F)F)c(-c5ccc(F)cc5)o4)CC3)cc2)cc1	9.5

Each molecule below has a recorded value; state its Average inhibition male (%).
1. CC(C)N(Cc1cnc2nc(N)nc(N)c2n1)c1ccc(Cl)c(Cl)c1
2. Cc1nc2nc(N)nc(N)c2c(C)c1Cc1cccc(C#N)c1.Cl
3. CN(C)CCCNCc1ccc(-c2ccc(CNCCOc3ccccc3)cc2)cc1.O=C(O)C(F)(F)F
4. OCc1ccc2nc3c(cc2c1)-c1cccc2cccc-3c12

-1.6
19.8
9.2
6.9
